Biological target: human MCHR1 (Homo sapiens, UniProt Q99705)
Construct: host or cells: CHO
Sequence (Q99705 whole entry): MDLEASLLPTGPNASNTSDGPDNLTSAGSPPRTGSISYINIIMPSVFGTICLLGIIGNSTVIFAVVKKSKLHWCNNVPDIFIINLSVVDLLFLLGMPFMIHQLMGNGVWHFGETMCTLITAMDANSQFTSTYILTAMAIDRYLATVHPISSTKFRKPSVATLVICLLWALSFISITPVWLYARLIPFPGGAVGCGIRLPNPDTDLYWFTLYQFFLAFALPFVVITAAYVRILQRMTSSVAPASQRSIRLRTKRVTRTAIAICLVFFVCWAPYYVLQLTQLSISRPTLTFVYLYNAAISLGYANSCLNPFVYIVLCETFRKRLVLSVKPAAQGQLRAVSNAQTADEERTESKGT
Test: Cyclic AMP assay (MCHR-1 functional antagonism)
Assay type: cell-based
Conditions: CHO cells stably expressing human MCHR1; cAMP accumulation with 25 uM forskolin and 0.2 nM MCH, 90 min; Ki from IC50 by Cheng-Prusoff; read-out: MCHR-1 functional Ki
pKi: −log10 of the molar value. Structures can show the parent of a compound that is named as a salt.
MEASUREMENT_KIND: pKi

Record excerpt, results attached:
NC1CN(c2ccc(-n3ccc(OCc4ccc(F)cc4)cc3=O)cn2)C1 [Example 35]: 6.63
COC1CCN(c2ccc(-n3ccc(OCc4ccccc4)cc3=O)cn2)C1 (stereo not shown) [Example 37]: 7.37
CN(C(=O)OC(C)(C)C)[C@H]1CCN(c2ccc(-n3ccc(CCc4ccccc4)cc3=O)cn2)C1 [Example 32]: 7.74

(a) O=c1cc(OCc2ccccc2)ccn1-c1ccc(N2CCC3(CCNC3)C2)nc1 (stereo not shown) [Example 219]
(b) CN(C)C(=O)C1CCN(c2ccc(-n3ccc(OCc4ccccc4)cc3=O)cn2)C1 (single isomer, unassigned) [Example 25b]
Exercise: Pick one, a or b : lowest reported pKi. Use the label to indicate which entry you chose.
Solution: b
(b: 7.16, a: 8.07)

(P) O=c1cc(OCc2ccc(Cl)cc2)ccn1-c1ccc(N2C[C@H]3CNC[C@H]3C2)nc1 [Example 107]
(Q) CN(C)C1CN(c2ccc(-n3ccc(OCc4ccccc4)cc3=O)cn2)C1 [Example 239]
(R) O=c1cc(OCc2ccccc2)ccn1-c1ccc(N2C[C@H]3C[C@@H]2CN3)nc1 [Example 231]
Exercise: Returns the items ordered by pKi, from maximum to minimum. Record the ranking as a list of labels in the requested order.
Solution: P, Q, R

(1) O=c1cc(OCc2ccccc2)ccn1-c1ccc(N2C[C@H]3CNC[C@H]3C2)nc1 [Example 8, dihydrochloride]
(2) CC1(N)CCN(c2ccc(-n3ccc(OCc4ccccc4)cc3=O)cn2)C1 (single isomer, unassigned) [Example 17a]
Exercise: Pick one, 1 or 2 : lowest reported pKi. Use the label to indicate which entry you chose.
Solution: 2
(2: 7.82, 1: 8.06)

(P) CN1CCN(c2ccc(-n3ccc(OCc4ccccc4)cc3=O)cn2)CC1 [Example 6]
(Q) CCC(=O)N1CCN(c2ccc(-n3ccc(OCc4ccccc4)cc3=O)cn2)CC1 [Example 167]
Exercise: Pick one, P or Q : lowest reported pKi. Use the label to indicate which entry you chose.
Solution: Q
(Q: 6.13, P: 6.79)

(1) O=c1cc(OCc2cccc(Cl)c2Cl)ccn1-c1ccc(N2CC[C@@H](O)C2)nc1 [Example 205]
(2) O=c1cc(OCc2ccccc2)ccn1-c1ccc(N2CCC(O)CC2)nc1 [Example 46]
Exercise: Please state the entry with greater pKi among 1 and 2 . Use the label to indicate which entry you chose.
Solution: 2
(2: 6.67, 1: 6.30)

* * *

Target: human MCHR1 (Homo sapiens, UniProt Q99705)
Construct: host or cells: CHO
Test: Cyclic AMP assay (MCHR-1 functional antagonism)
Format: cell-based
Details: CHO cells stably expressing human MCHR1; cAMP accumulation with 25 uM forskolin and 0.2 nM MCH, 90 min; Ki from IC50 by Cheng-Prusoff; read-out: MCHR-1 functional Ki
MEASUREMENT_KIND: Ki (nM)

Record excerpt, results attached:
CCC1CN(c2ccc(-n3ccc(OCc4ccccc4)cc3=O)cn2)CCN1 (centres unmarked) [Example 72]: 74.6
O=c1cc(OCc2ccc(Cl)cc2)ccn1-c1ccc(N2CC[C@@H](O)C2)nc1 [Example 10]: 42.8
CC(C)CC1CN(c2ccc(-n3ccc(OCc4ccccc4)cc3=O)cn2)CCN1 (centres unmarked) [Example 71]: 626
CN(C(=O)OC(C)(C)C)[C@H]1CCN(c2ccc(-n3ccc(OCc4ccccc4)cc3=O)nn2)C1 [Example 156]: 230
O=c1cc(OCc2ccc(F)cc2)ccn1-c1ccc(N2CC(O)C2)nc1 [Example 91]: 396
O=c1cc(OCc2ccc(Cl)cc2F)ccn1-c1ccc(N2CC[C@@H](O)C2)nc1 [Example 147]: 26.2

(I) O=c1cc(OCc2ccccc2Cl)ccn1-c1ccc(N2CC[C@@H](O)C2)nc1 [Example 145]
(II) O=c1cc(OCc2ccccc2)ccn1-c1ccc(N2C[C@@H]3CN(C4CCC4)C[C@@H]3C2)nc1 [Example 210]
(III) CC(=O)N(C)[C@@H]1CCN(c2ccc(-n3ccc(OCc4ccc(Cl)cc4)cc3=O)cn2)C1 [Example 172]
(IV) O=c1cc(OCc2ccc(Cl)c(Cl)c2)ccn1-c1ccc(N2CC[C@@H](O)C2)nc1 [Example 204]
Exercise: Order each entry by recorded Ki, climbing from the minimum. Record the ranking as a list of labels in the requested order.
Solution: II, III, I, IV

(A) CCCC(=O)N[C@H]1CCN(c2ccc(-n3ccc(OCc4ccccc4)cc3=O)cn2)C1 [Example 169]
(B) CN(C)C(=O)C1CCN(c2ccc(-n3ccc(OCc4ccccc4)cc3=O)cn2)C1 (single isomer, unassigned) [Example 25a]
Exercise: Pick one, A or B : lowest reported Ki. Use the label to indicate which entry you chose.
Solution: A
(A: 19.4 nM, B: 71.1 nM)

(P) CCN(C(=O)OC)[C@@H]1CCN(c2ccc(-n3ccc(OCc4ccccc4)cc3=O)cn2)C1 [Example 178]
(Q) CC(C)C(=O)N1C[C@@H]2CN(c3ccc(-n4ccc(OCc5ccc(F)cc5)cc4=O)cn3)C[C@@H]2C1 [Example 170]
Exercise: Please state the entry with greater Ki among P and Q . Use the label to indicate which entry you chose.
Solution: Q
(Q: 29.1 nM, P: 19.2 nM)

(A) CCN(C(=O)OC)[C@H]1CCN(c2ccc(-n3ccc(OCc4ccccc4)cc3=O)cn2)C1 [Example 177]
(B) CCC(=O)N1C[C@@H]2CN(c3ccc(-n4ccc(OCc5ccc(F)cc5)cc4=O)cn3)C[C@@H]2C1 [Example 171]
(C) CCN1CCN(c2ccc(-n3ccc(OCc4ccccc4)cc3=O)cn2)CC1 [Example 7]
Exercise: Order each entry by recorded Ki, climbing from the minimum. Record the ranking as a list of labels in the requested order.
Solution: A, B, C
(A: 19.3 nM, B: 38.1 nM, C: 87.1 nM)

(I) O=c1cc(OCc2ccc(F)cc2)ccn1-c1ccc(N2CCCC2)nc1 [Example 116]
(II) CN(C)C1CCN(c2ccc(-n3ccc(OCc4ccccc4)cc3=O)cn2)CC1 [Example 5]
(III) COC(=O)N1CCN(c2ccc(-n3ccc(OCc4ccc(F)cc4)cc3=O)cn2)CC1 [Example 81]
Exercise: Order each entry by recorded Ki, climbing from the minimum. Record the ranking as a list of labels in the requested order.
Solution: I, II, III

(1) O=c1cc(OCc2ccc(F)c(F)c2)ccn1-c1ccc(N2CC[C@@H](O)C2)nc1 [Example 148]
(2) COC(=O)N[C@H]1CCN(c2ccc(-n3ccc(OCc4ccc(F)cc4)cc3=O)cn2)C1 [Example 186]
(3) CC(C)C(=O)N1CCN(c2ccc(-n3ccc(OCc4ccccc4)cc3=O)cn2)CC1 [Example 166]
(4) CC(=O)N(C)[C@H]1CCN(c2ccc(-n3ccc(OCc4ccc(Cl)cc4)cc3=O)cn2)C1 [Example 173]
(5) O=c1cc(OCc2ccc(F)cc2)ccn1-c1ccc(N2C[C@@H]3CN(C4CCC4)C[C@@H]3C2)nc1 [Example 208]
Exercise: Returns the items ordered by Ki, from maximum to minimum. Record the ranking as a list of labels in the requested order.
Solution: 3, 1, 2, 4, 5

(A) CCO[C@H]1CCN(c2ccc(-n3ccc(OCc4ccccc4)cc3=O)cn2)C1 [Example 40]
(B) N[C@@H]1[C@H]2CN(c3ccc(-n4ccc(OCc5ccccc5)cc4=O)cn3)C[C@@H]12 [Example 217]
Exercise: Pick one, A or B : lowest reported Ki. Use the label to indicate which entry you chose.
Solution: B
(B: 11 nM, A: 34.1 nM)

(a) CNC1(C)CCN(c2ccc(-n3ccc(OCc4ccccc4)cc3=O)cn2)C1 (single isomer, unassigned) [Example 18b]
(b) CNC1CCN(c2ccc(-n3ccc(OCc4ccccc4)cc3=O)cn2)CC1 [Example 58]
Exercise: Please state the entry with greater Ki among a and b . Use the label to indicate which entry you chose.
Solution: b
(b: 28.8 nM, a: 18.3 nM)
